Test system: Human Small Cell Lung Cancer H69
experiment_summary: Cell proliferation experiment (Alarm blue), H69
Type: cell-based
condition_notes: Homo sapiens, NCI-H69; H69 cells, 72 h culture; read-out: Anti cell proliferative activity EC50, H69
pEC50: −log10 of the molar value.
Measured pEC50 values are reported for all entries that follow.

Some compounds with known pEC50 results, for comparison:
Incoming: State pEC50 on Human Small Cell Lung Cancer H69. Entry: CNC(=O)c1ccccc1Nc1nc(Nc2ccc(N3CCN(C(=O)N[C@H]4C[C@@H](NCCC#Cc5ccc6c(c5)CN(C5CCC(=O)NC5=O)C6=O)C4)CC3)cc2)ncc1Cl (some centres unmarked)
Outgoing: < 6.00

Incoming: State pEC50 on Human Small Cell Lung Cancer H69. Entry: NC(=O)c1ccccc1Nc1nc(Nc2ccc(N3CCN(C(=O)N[C@H]4CC[C@@H](NC5CN(CCC#Cc6ccc7c(c6)CN(C6CCC(=O)NC6=O)C7=O)C5)CC4)CC3)cc2)ncc1Cl (some centres unmarked)
Outgoing: < 6.00

Incoming: State pEC50 on Human Small Cell Lung Cancer H69. Entry: NC(=O)c1ccccc1Nc1nc(Nc2ccc(N3CCN([C@H]4CC[C@@H](NCCC#Cc5ccc6c(c5)CN(C5CCC(=O)NC5=O)C6=O)CC4)CC3)cc2)ncc1Cl (some centres unmarked)
Outgoing: < 6.00

Incoming: State pEC50 on Human Small Cell Lung Cancer H69. Entry: NC(=O)c1ccccc1Nc1nc(Nc2ccc(C3CCN(C(=O)N[C@H]4C[C@@H](NCCC#Cc5ccc6c(c5)CN(C5CCC(=O)NC5=O)C6=O)C4)CC3)cc2)ncc1Cl (some centres unmarked)
Outgoing: < 6.00

In the following, a different compound is considered.
Incoming: State pEC50 on Human Small Cell Lung Cancer H69. Entry: NC(=O)c1ccccc1Nc1nc(Nc2ccc(N3CCN(C(=O)N[C@H]4C[C@@H](NCCC#Cc5ccc6c(c5)CN(C5CCC(=O)NC5=O)C6=O)C4)CC3)cc2)ncc1Cl (some centres unmarked)
Outgoing: 7.72

---

Test system: human gastric carcinoma cells N87
experiment_summary: Cell proliferation experiment (Alarm blue), N87
Assay type: cell-based
condition_notes: N87 cells, 72 h culture; read-out: Anti cell proliferative activity EC50, N87
value_kind: pEC50
Answer as the number alone; pEC50 is minus log10 of concentration in mol/L.

Incoming: Fill in pEC50 for record CC(C)c1cc(-c2nnc(O)n2-c2ccc3c(ccn3CCC3CCN(C(=O)CCSSCCOC(=O)N(CCC#Cc4ccc5c(c4)CN(C4CCC(=O)NC4=O)C5=O)C4CCC(NC(=O)N5CCN(c6ccc(Nc7ncc(Cl)c(Nc8ccccc8C(N)=O)n7)cc6)CC5)CC4)CC3)c2)c(O)cc1O (centres unmarked)
Outgoing: 6.09

---

Test system: Human Small Cell Lung Cancer H69
experiment_summary: Cell proliferation experiment (Alarm blue), H69
Format: cell-based
condition_notes: 72 h
Measured EC50 values are reported for all entries that follow.

Some compounds with known EC50 results, for comparison:
Incoming: Fill in EC50 for record CNC(=O)c1ccccc1Nc1nc(Nc2ccc(N3CCN(C(=O)NC4CCC(N(CCC#Cc5ccc6c(c5)CN(C5CCC(=O)NC5=O)C6=O)C(=O)OCc5ccc(NC(=O)[C@H](CC(N)=O)NC(=O)[C@H](C)NC(=O)[C@H](C)NC(=O)CCCCCN6C(=O)CC(SC[C@H](NC(=O)[C@H](CC(=O)O)NC(=O)[C@H](CC(=O)O)NC(=O)[C@H](CCCNC(=N)N)NC(=O)[C@H](CC(=O)O)NC(=O)CCC(NC(=O)c7ccc(NCc8cnc9nc(N)[nH]c(=O)c9n8)cc7)C(=O)O)C(=O)O)C6=O)cc5)CC4)CC3)cc2)ncc1Cl (stereo partly drawn) [UB-181298]
Outgoing: > 1000 nM

Incoming: Fill in EC50 for record CC[C@@H]1C(=O)N(C)c2cnc(Nc3ccc(-c4cn([C@H]5CC[C@@H](N(CCOCCC#Cc6cccc7c6CN(C6CCC(=O)NC6=O)C7=O)C(=O)OCCSSC[C@H](NC(=O)[C@H](CC(=O)O)NC(=O)[C@H](CC(=O)O)NC(=O)[C@H](CCCNC(=N)N)NC(=O)[C@H](CC(=O)O)NC(=O)CC[C@H](NC(=O)c6ccc(NCc7cnc8nc(N)[nH]c(=O)c8n7)cc6)C(=O)O)C(=O)O)CC5)nn4)cc3OC)nc2N1C1CCCC1 (stereo partly drawn) [UB-181336]
Outgoing: > 1000 nM

More entries:
Incoming: Fill in EC50 for record CC[C@@H]1C(=O)N(C)c2cnc(Nc3ccc(-c4cn([C@H]5CC[C@@H](N(CCOCCC#Cc6cccc7c6CN(C6CCC(=O)NC6=O)C7=O)C(=O)OCc6ccc(NC(=O)[C@H](CC(N)=O)NC(=O)[C@H](C)NC(=O)[C@H](C)NC(=O)CCCCCN7C(=O)CC(SC[C@H](NC(=O)[C@H](CC(=O)O)NC(=O)[C@H](CC(=O)O)NC(=O)[C@H](CCCNC(=N)N)NC(=O)[C@H](CC(=O)O)NC(=O)CCC(NC(=O)c8ccc(NCc9cnc%10nc(N)[nH]c(=O)c%10n9)cc8)C(=O)O)C(=O)O)C7=O)cc6)CC5)nn4)cc3OC)nc2N1C1CCCC1 (stereo partly drawn) [UB-181337]
Outgoing: 79.3 nM

---

System: human gastric carcinoma cells N87
experiment_summary: Cell proliferation experiment (Alarm blue), N87
Type: cell-based
condition_notes: N87 cells, 72 h culture; read-out: Anti cell proliferative activity EC50, N87
value_kind: EC50

Incoming: State EC50 on human gastric carcinoma cells N87. Entry: CC(OC(=O)N(CCC#Cc1ccc2c(c1)CN(C1CCC(=O)NC1=O)C2=O)C1CCC(NC(=O)N2CCN(c3ccc(Nc4ncc(Cl)c(Nc5ccccc5C(N)=O)n4)cc3)CC2)CC1)C(C)SSC[C@H](N)C(=O)N[C@H](Cc1ccccc1)C(=O)N[C@H]1CSSC[C@@H](C(=O)N[C@H](CO)[C@@H](C)O)NC(=O)[C@H]([C@@H](C)O)NC(=O)[C@H](CCCCN)NC(=O)[C@@H](Cc2c[nH]c3ccccc23)NC(=O)[C@H](Cc2ccccc2)NC1=O (stereo partly shown) [UB-181275]
Outgoing: > 1000 nM

---

Test system: Human Small Cell Lung Cancer NCI-H82
experiment_summary: Cell proliferation experiment (Alarm blue), H82
Format: cell-based
condition_notes: Homo sapiens, NCI-H82, 72 h, H82 cells, 72 h culture; read-out: Anti cell proliferative activity EC50, H82
value_kind: pEC50
Answer as the number alone; pEC50 is minus log10 of concentration in mol/L.

Some molecules with known pEC50 results, for comparison:
Incoming: State pEC50 on Human Small Cell Lung Cancer NCI-H82. Entry: NC(=O)c1ccccc1Nc1nc(Nc2ccc(N3CCN(C(=O)N[C@H]4C[C@H](NCCC#Cc5ccc6c(c5)CN(C5CCC(=O)NC5=O)C6=O)C4)CC3)cc2)ncc1Cl (some centres unmarked)
Outgoing: 7.60

Incoming: State pEC50 on Human Small Cell Lung Cancer NCI-H82. Entry: CNC(=O)c1ccccc1Nc1nc(Nc2ccc(N3CCN(C(=O)NC4CCN(CCNCCC#Cc5ccc6c(c5)CN(C5CCC(=O)NC5=O)C6=O)CC4)CC3)cc2)ncc1Cl (centres unmarked)
Outgoing: 7.43

Incoming: State pEC50 on Human Small Cell Lung Cancer NCI-H82. Entry: NC(=O)c1ccccc1Nc1nc(Nc2ccc(N3CCN(C(=O)N[C@H]4CC[C@@H](NC5CN(CCC#Cc6ccc7c(c6)CN(C6CCC(=O)NC6=O)C7=O)C5)CC4)CC3)cc2)ncc1Cl (some centres unmarked)
Outgoing: 7.49

Incoming: State pEC50 on Human Small Cell Lung Cancer NCI-H82. Entry: CNC(=O)c1ccccc1Nc1nc(Nc2ccc(N3CCN(C(=O)N[C@H]4C[C@@H](NCCC#Cc5ccc6c(c5)CN(C5CCC(=O)NC5=O)C6=O)C4)CC3)cc2)ncc1Cl (some centres unmarked)
Outgoing: 7.27

Incoming: State pEC50 on Human Small Cell Lung Cancer NCI-H82. Entry: CNC(=O)c1ccccc1Nc1nc(Nc2ccc(N3CCN(C(=O)N[C@H]4C[C@@H](NCC#Cc5ccc6c(c5)CN(C5CCC(=O)NC5=O)C6=O)C4)CC3)cc2)ncc1Cl (some centres unmarked)
Outgoing: 7.37

Incoming: State pEC50 on Human Small Cell Lung Cancer NCI-H82. Entry: CNC(=O)c1ccccc1Nc1nc(Nc2ccc(N3CCN(C(=O)CNCCC#Cc4ccc5c(c4)CN(C4CCC(=O)NC4=O)C5=O)CC3)cc2)ncc1Cl (centres unmarked)
Outgoing: 7.72

Incoming: State pEC50 on Human Small Cell Lung Cancer NCI-H82. Entry: CNC(=O)c1ccccc1Nc1nc(Nc2ccc(N3CCC(C(=O)N4CCC5(CC4)CC(NCCC#Cc4ccc6c(c4)CN(C4CCC(=O)NC4=O)C6=O)C5)CC3)cc2)ncc1Cl (centres unmarked)
Outgoing: 6.41

Incoming: State pEC50 on Human Small Cell Lung Cancer NCI-H82. Entry: NC(=O)c1ccccc1Nc1nc(Nc2ccc(C3CCN(C(=O)N[C@H]4C[C@@H](NCCC#Cc5ccc6c(c5)CN(C5CCC(=O)NC5=O)C6=O)C4)CC3)cc2)ncc1Cl (some centres unmarked)
Outgoing: 7.60

More entries:
Incoming: State pEC50 on Human Small Cell Lung Cancer NCI-H82. Entry: NC(=O)c1ccccc1Nc1nc(Nc2ccc(N3CCN(C(=O)CNCCC#Cc4ccc5c(c4)CN(C4CCC(=O)NC4=O)C5=O)CC3)cc2)ncc1Cl (centres unmarked)
Outgoing: 7.67

Incoming: State pEC50 on Human Small Cell Lung Cancer NCI-H82. Entry: NC(=O)c1ccccc1Nc1nc(Nc2ccc(N3CCN(C(=O)NC4CCN(CCNCCC#Cc5ccc6c(c5)CN(C5CCC(=O)NC5=O)C6=O)CC4)CC3)cc2)ncc1Cl (centres unmarked)
Outgoing: 7.56

Incoming: State pEC50 on Human Small Cell Lung Cancer NCI-H82. Entry: NC(=O)c1ccccc1Nc1nc(Nc2ccc(N3CCN(C(=O)NC4CCN(C(=O)CNCCC#Cc5ccc6c(c5)CN(C5CCC(=O)NC5=O)C6=O)CC4)CC3)cc2)ncc1Cl (centres unmarked)
Outgoing: 6.22
